# assay.remarks: clinical
# condition.set: human, in vivo, po, 20 mg, Tmax (h) (median, range)
measured.property: Tmax (h)
Field format: number, assumed h, no unit text.

Query: Bench note: what Tmax did "Cc1c(NS(=O)(=O)c2c(Cl)cc(-c3ccnc(N4CCNCC4)c3)cc2Cl)c(CC(C)C)nn1C" show?
Reply: 2

###

# assay.remarks: clinical
# condition.set: human, in vivo, half-life values across the dose cohorts
measured.property: half-life

Query: Bench note: what half-life did "Cc1c(NS(=O)(=O)c2c(Cl)cc(-c3ccnc(N4CCNCC4)c3)cc2Cl)c(CC(C)C)nn1C" show?
Reply: 7.67 to 12 h

###

# assay.remarks: clinical
# condition.set: human, in vivo, po, 20 mg, Cmax (ng/ml) (mean, SD)
measured.property: Cmax (ng/mL)
Field format: number, assumed ng/mL, no unit text.

Query: Bench note: what Cmax did Cc1c(NS(=O)(=O)c2c(Cl)cc(-c3ccnc(N4CCNCC4)c3)cc2Cl)c(CC(C)C)nn1C [zelenirstat] show?
Reply: 359

###

# assay.remarks: clinical
# condition.set: human, in vivo, po, 100 mg, t1/2 (h) (mean, SD)
measured.property: half-life (h)
Field format: number, assumed h, no unit text.

Query: Bench note: what half-life did Cc1c(NS(=O)(=O)c2c(Cl)cc(-c3ccnc(N4CCNCC4)c3)cc2Cl)c(CC(C)C)nn1C [zelenirstat] show?
Reply: 12

###

# assay.remarks: clinical
# condition.set: human, in vivo, po, time of peak plasma concentrations
measured.property: Tmax (h)
Field format: number, assumed h, no unit text.

Query: Bench note: what Tmax did Cc1c(NS(=O)(=O)c2c(Cl)cc(-c3ccnc(N4CCNCC4)c3)cc2Cl)c(CC(C)C)nn1C [zelenirstat] show?
Reply: 2

###

# assay.remarks: clinical
# condition.set: human, in vivo, mean terminal half-life across the dose cohorts
measured.property: half-life

Query: Bench note: what half-life did "Cc1c(NS(=O)(=O)c2c(Cl)cc(-c3ccnc(N4CCNCC4)c3)cc2Cl)c(CC(C)C)nn1C" show?
Reply: 6.7 to 9.5 h

###

# assay.remarks: clinical
# condition.set: human, in vivo, po, 40 mg, Cmax (ng/ml) (mean, SD)
measured.property: Cmax
Record the result as number plus unit.

Query: Bench note: what Cmax did Cc1c(NS(=O)(=O)c2c(Cl)cc(-c3ccnc(N4CCNCC4)c3)cc2Cl)c(CC(C)C)nn1C [zelenirstat] show?
Reply: 848 ng/mL

###

# assay.remarks: clinical
# condition.set: human, in vivo, po, 40 mg, AUC0 − 24 (h*ng/mL) (mean, SD)
measured.property: AUC(0-t)
Record the result as number plus unit.

Query: Bench note: what AUC(0-t) did "Cc1c(NS(=O)(=O)c2c(Cl)cc(-c3ccnc(N4CCNCC4)c3)cc2Cl)c(CC(C)C)nn1C" show?
Reply: 4820 ng·h/mL

###

# assay.remarks: clinical
# condition.set: human, in vivo, po, median Tmax values across the dose cohorts
measured.property: Tmax

Query: Bench note: what Tmax did "Cc1c(NS(=O)(=O)c2c(Cl)cc(-c3ccnc(N4CCNCC4)c3)cc2Cl)c(CC(C)C)nn1C" show?
Reply: 1 to 4 h

###

# assay.remarks: clinical
# condition.set: human, in vivo, median Tmax range in patients taking proton pump inhibitors (PPI)
measured.property: Tmax

Query: Bench note: what Tmax did "Cc1c(NS(=O)(=O)c2c(Cl)cc(-c3ccnc(N4CCNCC4)c3)cc2Cl)c(CC(C)C)nn1C" show?
Reply: 1 to 6 h
